experiment: Plasma compound levels after oral dosing (LC-MS/MS); details: C57BL/6, mouse, 3 mg/kg
endpoint label: AUC(0-t) (µM·h)
Numbers only; they are read as µM·h.

Let me know recorded AUC(0-t) for CC(=O)N1CCC(C(C)N(C(=O)COc2cccc3sc4nc(C)cn4c23)c2ccc(F)cc2)CC1 (stereo not shown) , thanks.
0.049

====

tested on: STC-1 cells; test: GLP-1 secretion in STC-1 enteroendocrine cells; assay type: cell-based; conditions: Mus musculus, read-out: EC50, GLP-1 secretion
endpoint label: EC50 (µM)
Numbers only; they are read as µM.

Let me know recorded EC50 for CC(=O)N1CCC(C(C)N(C(=O)COc2cccc3sc4nc(C)cn4c23)c2ccc(F)cc2)CC1 (stereo not shown) , thanks.
0.307
